Data credit: patent US12319672B2

# IC50 measurements, system: human Gal-3 (hGal-3) (Homo sapiens (Human))
# Sequence (P17931 whole entry): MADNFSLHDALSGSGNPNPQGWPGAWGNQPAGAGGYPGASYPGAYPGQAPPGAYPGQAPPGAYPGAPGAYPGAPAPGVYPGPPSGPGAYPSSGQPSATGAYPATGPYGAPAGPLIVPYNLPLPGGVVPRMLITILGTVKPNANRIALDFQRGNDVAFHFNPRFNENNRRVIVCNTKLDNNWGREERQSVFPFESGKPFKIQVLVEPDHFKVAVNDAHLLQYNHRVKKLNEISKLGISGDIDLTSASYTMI
measured_metric: IC50 (nM)

Some solved cases for reference:
>  <compound>
CC(=O)O[C@@H]1[C@@H](n2cc(-c3cc(F)c(F)c(F)c3)nn2)[C@@H](O)[C@@H](CO)O[C@@H]1Cc1cc(C2CCN(C(=O)OC(C)(C)C)CC2)on1

>  <IC50, nM>
78

$$$$
>  <compound>
CO[C@@H]1[C@@H](n2cc(-c3cc(F)c(F)c(F)c3)nn2)[C@@H](O)[C@@H](CO)O[C@@H]1Cc1cc(C2(O)CCCC2)no1

>  <IC50, nM>
140

$$$$
>  <compound>
CO[C@@H]1[C@@H](n2cc(-c3cc(F)c(F)c(F)c3)nn2)[C@@H](O)[C@@H](CO)O[C@@H]1C[C@H]1CC(C2CCN(C(C)=O)CC2)=NO1

>  <IC50, nM>
670

$$$$

1. Cn1c(=O)[nH]c2cc(C3=NOC(C[C@H]4O[C@H](CO)[C@H](O)[C@H](n5cc(-c6cc(F)c(F)c(F)c6)nn5)[C@H]4O)C3)ccc21 (stereo partly drawn)
2. CO[C@@H]1[C@@H](n2cc(-c3cc(F)c(F)c(F)c3)nn2)[C@@H](O)[C@@H](CO)O[C@@H]1Cc1cc(C2(O)CCCCC2)on1
3. CO[C@@H]1[C@@H](n2cc(-c3ccc(F)c(F)c3F)nn2)[C@@H](O)[C@@H](CO)O[C@@H]1Cc1cc(C2CCCCC2)on1
Q: Sort low-to-high on IC50, please. Please list the labels according to the requested order.
A: 2, 3, 1
(2: 190 nM, 3: 310 nM, 1: 470 nM)
